Target: Bcl-xL, Q07817
Sequence (Q07817 1-209): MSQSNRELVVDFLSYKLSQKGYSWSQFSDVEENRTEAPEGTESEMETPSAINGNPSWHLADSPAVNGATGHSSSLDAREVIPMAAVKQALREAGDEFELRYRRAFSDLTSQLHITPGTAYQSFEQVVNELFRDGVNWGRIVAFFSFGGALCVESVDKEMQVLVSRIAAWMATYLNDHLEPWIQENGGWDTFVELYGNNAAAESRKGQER
Experiment: peptide SPOT array, c-Myc-tagged receptor at 1 uM or 100 nM, anti-c-Myc-Cy3
observed-property: SPOT signal as a fraction of Bim BH3's signal on the same receptor and array

Reference set (2 entries):
1) LDFTFVCPTEIIAFLDRLEEFRSINT [PRDX4] | 0.05
2) VLLTLLVAAVLRCQLQDVQEAGSCVQ [COL2A1] | 0.05

I = SSLSDGLPVHDANIADELTQKKKMFK [AGBL2]
II = GKDHPDVAKQLNNLALLCQNQGKYEE [KLC1]
**Q:** Smaller SPOT signal as a fraction of Bim BH3's signal on the same receptor and array value? Options are I and II Respond with the label that goes with your answer.
**A:** II
(II: 0.02, I: 0.03)
